PROCEDURE_SUMMARY: Terminal half life in cynomolgus monkey at 0.5 mg/kg, iv up to 24 hrs by LC/MS/MS analysis
Format: ADME, organism-based, Macaca fascicularis
STUDY_CONDITIONS: in vivo, read-out: beta t1/2
ASSAY_METRIC: half-life

Query half-life for `Cc1cc(Oc2cncc(F)c2)cc(C(=O)Nc2ccc(F)cn2)n1`
563 min

###

Documented Cmax across a set of compounds
Test system: Cynomolgus monkey
PROCEDURE_SUMMARY: Cmax in cynomolgus monkey at 5 mg/kg administered via nasogastric gavage up to 24 hrs by LC/MS/MS analysis
Format: ADME, organism-based, Macaca fascicularis
Set-up: dose 5 mg/kg, route nasogastric
STUDY_CONDITIONS: in vivo, po
Numeric answer only, unit nM assumed.

Query Cmax for `Cc1cc(Oc2cncc(F)c2)cc(C(=O)Nc2ccc(F)cn2)n1`
1360

With those in mind, consider the next compound.
Query Cmax for `Cc1cc(Oc2cncnc2)cc(C(=O)Nc2ccc(F)cn2)n1`
1720

###

PROCEDURE_SUMMARY: Plasma clearance in cynomolgus monkey at 0.2 mg/kg, iv up to 24 hrs by LC/MS/MS analysis
Format: ADME, organism-based, Macaca fascicularis
ASSAY_METRIC: clearance (mL/min/kg)
Numeric answer only, unit mL/min/kg assumed.

Query clearance for `Cc1csc(NC(=O)c2cc(F)cc(Oc3cncnc3)c2)n1`
24

###

Test system: Rattus norvegicus
PROCEDURE_SUMMARY: Cmax in Sprague-Dawley rat at 10 mg/kg, administered via nasogastric gavage up to 24 hrs by LC/MS/MS analysis
Assay type: ADME, organism-based
Parameters: dose 10 mg/kg, route nasogastric
STUDY_CONDITIONS: in vivo, po
Documented Cmax across a set of compounds
Numeric answer only, unit µM assumed.

Query Cmax for `Cc1cc(Oc2cncnc2)cc(C(=O)Nc2ccc(F)cn2)n1`
4.34

With those in mind, consider the next compound.
Query Cmax for `Cc1cc(Oc2cncc(F)c2)cc(C(=O)Nc2ccc(F)cn2)n1`
3.33

###

System: Rattus norvegicus
PROCEDURE_SUMMARY: Terminal half life in Sprague-Dawley rat at 1 mg/kg, iv up to 24 hrs post dose by LC/MS/MS analysis
Type: ADME, organism-based
STUDY_CONDITIONS: in vivo
ASSAY_METRIC: beta t1/2 (h)
Numeric answer only, unit h assumed.

Query beta t1/2 for `Cc1cccc(NC(=O)c2cc(Oc3cncnc3)cc(C)n2)n1`
1.75

Query beta t1/2 for `Cc1cc(Oc2cncc(F)c2)cc(C(=O)Nc2cccc(F)n2)n1`
1.37

Next:
Query beta t1/2 for `CCc1cccc(NC(=O)c2cc(Oc3cncnc3)cc(C)n2)n1`
6.73

Query beta t1/2 for `Cc1cc(Oc2cncc(F)c2)cc(C(=O)Nc2ccc(F)cn2)n1`
4.68

###

Documented clearance across a set of molecules
PROCEDURE_SUMMARY: Plasma clearance in cynomolgus monkey at 0.5 mg/kg, iv up to 24 hrs by LC/MS/MS analysis
Type: ADME, organism-based, Macaca fascicularis
Numeric answer only, unit mL/min/kg assumed.

Query clearance for `Cc1cc(Oc2cncnc2)cc(C(=O)Nc2ccc(F)cn2)n1`
15.5

Query clearance for `Cc1cc(Oc2cncc(F)c2)cc(C(=O)Nc2ccc(F)cn2)n1`
13.3

###

Documented concentration at 1 h across a set of compounds
PROCEDURE_SUMMARY: Total drug level in Sprague-Dawley rat brain at 10 mg/kg, po after 1 hr post dose by LC/MS/MS analysis
Assay type: ADME, organism-based
STUDY_CONDITIONS: read-out: Drug uptake
Numeric answer only, unit nM assumed.

Query concentration at 1 h for `Cc1cc(Oc2cncnc2)cc(C(=O)Nc2ccc(F)cn2)n1`
2580

Next:
Query concentration at 1 h for `Cc1cc(Oc2cnc(C)nc2)cc(C(=O)Nc2ccc(F)cn2)n1`
3220

###

Tested on: Rattus norvegicus
PROCEDURE_SUMMARY: Volume of distribution at steady state in Sprague-Dawley rat at 1 mg/kg, iv up to 24 hrs post dose by LC/MS/MS Analysis
Type: ADME, organism-based
STUDY_CONDITIONS: in vivo
ASSAY_METRIC: Vdss (L/kg)
Numeric answer only, unit L/kg assumed.

Below, 5 compounds whose answers are already recorded.
Query Vdss for `Cc1cc(Oc2cncc(F)c2)cc(C(=O)Nc2cccc(F)n2)n1`
11

Query Vdss for `Cc1cc(Oc2cnc(C)nc2)cc(C(=O)Nc2ccc(F)cn2)n1`
1.2

Query Vdss for `Cc1cc(Oc2cncc(F)c2)cc(C(=O)Nc2ccc(F)cn2)n1`
1.9

Query Vdss for `Cc1cccc(NC(=O)c2cc(Oc3cncc(F)c3)cc(C)n2)n1`
4.5

Query Vdss for `Cc1cc(Oc2cncnc2)cc(C(=O)Nc2ccc(F)cn2)n1`
1.8

Next:
Query Vdss for `Cc1cccc(NC(=O)c2cc(Oc3cncnc3)cc(C)n2)n1`
1.6

Query Vdss for `CCc1cccc(NC(=O)c2cc(Oc3cncnc3)cc(C)n2)n1`
6.6

###

Test system: Rattus norvegicus
PROCEDURE_SUMMARY: MRT in Sprague-Dawley rat at 1 mg/kg, iv up to 24 hrs post dose by LC/MS/MS analysis
Assay type: ADME, organism-based
STUDY_CONDITIONS: in vivo
ASSAY_METRIC: MRT (h)
Numeric answer only, unit h assumed.

Below, 6 compounds whose answers are already recorded.
Query MRT for `Cc1cccc(NC(=O)c2cc(Oc3cncnc3)cc(C)n2)n1`
0.65

Query MRT for `Cc1cc(Oc2cncc(F)c2)cc(C(=O)Nc2cccc(F)n2)n1`
2.62

Query MRT for `Cc1cc(Oc2cncc(F)c2)cc(C(=O)Nc2ccc(F)cn2)n1`
3.47

Query MRT for `CCc1cccc(NC(=O)c2cc(Oc3cncnc3)cc(C)n2)n1`
1.33

Query MRT for `Cc1cccc(NC(=O)c2cc(Oc3cncc(F)c3)cc(C)n2)n1`
2

Query MRT for `Cc1cc(Oc2cncnc2)cc(C(=O)Nc2ccc(F)cn2)n1`
1.55

Next:
Query MRT for `Cc1cc(Oc2cnc(C)nc2)cc(C(=O)Nc2ccc(F)cn2)n1`
3.18

###

System: Rattus norvegicus
PROCEDURE_SUMMARY: Terminal half life in Sprague-Dawley rat at 1 mg/kg, iv up to 24 hrs post dose by LC/MS/MS analysis
Assay type: ADME, organism-based
STUDY_CONDITIONS: in vivo
Documented beta t1/2 across a set of compounds
Numeric answer only, unit h assumed.

Query beta t1/2 for `Cc1cc(Oc2cncnc2)cc(C(=O)Nc2ccc(F)cn2)n1`
6.5

Next:
Query beta t1/2 for `Cc1cccc(NC(=O)c2cc(Oc3cncc(F)c3)cc(C)n2)n1`
4.47

Query beta t1/2 for `Cc1cc(Oc2cnc(C)nc2)cc(C(=O)Nc2ccc(F)cn2)n1`
3.82
